Assayed Target: DNA topoisomerase 2-alpha (Homo sapiens, UniProt P11388)
Sequence (P11388 whole entry): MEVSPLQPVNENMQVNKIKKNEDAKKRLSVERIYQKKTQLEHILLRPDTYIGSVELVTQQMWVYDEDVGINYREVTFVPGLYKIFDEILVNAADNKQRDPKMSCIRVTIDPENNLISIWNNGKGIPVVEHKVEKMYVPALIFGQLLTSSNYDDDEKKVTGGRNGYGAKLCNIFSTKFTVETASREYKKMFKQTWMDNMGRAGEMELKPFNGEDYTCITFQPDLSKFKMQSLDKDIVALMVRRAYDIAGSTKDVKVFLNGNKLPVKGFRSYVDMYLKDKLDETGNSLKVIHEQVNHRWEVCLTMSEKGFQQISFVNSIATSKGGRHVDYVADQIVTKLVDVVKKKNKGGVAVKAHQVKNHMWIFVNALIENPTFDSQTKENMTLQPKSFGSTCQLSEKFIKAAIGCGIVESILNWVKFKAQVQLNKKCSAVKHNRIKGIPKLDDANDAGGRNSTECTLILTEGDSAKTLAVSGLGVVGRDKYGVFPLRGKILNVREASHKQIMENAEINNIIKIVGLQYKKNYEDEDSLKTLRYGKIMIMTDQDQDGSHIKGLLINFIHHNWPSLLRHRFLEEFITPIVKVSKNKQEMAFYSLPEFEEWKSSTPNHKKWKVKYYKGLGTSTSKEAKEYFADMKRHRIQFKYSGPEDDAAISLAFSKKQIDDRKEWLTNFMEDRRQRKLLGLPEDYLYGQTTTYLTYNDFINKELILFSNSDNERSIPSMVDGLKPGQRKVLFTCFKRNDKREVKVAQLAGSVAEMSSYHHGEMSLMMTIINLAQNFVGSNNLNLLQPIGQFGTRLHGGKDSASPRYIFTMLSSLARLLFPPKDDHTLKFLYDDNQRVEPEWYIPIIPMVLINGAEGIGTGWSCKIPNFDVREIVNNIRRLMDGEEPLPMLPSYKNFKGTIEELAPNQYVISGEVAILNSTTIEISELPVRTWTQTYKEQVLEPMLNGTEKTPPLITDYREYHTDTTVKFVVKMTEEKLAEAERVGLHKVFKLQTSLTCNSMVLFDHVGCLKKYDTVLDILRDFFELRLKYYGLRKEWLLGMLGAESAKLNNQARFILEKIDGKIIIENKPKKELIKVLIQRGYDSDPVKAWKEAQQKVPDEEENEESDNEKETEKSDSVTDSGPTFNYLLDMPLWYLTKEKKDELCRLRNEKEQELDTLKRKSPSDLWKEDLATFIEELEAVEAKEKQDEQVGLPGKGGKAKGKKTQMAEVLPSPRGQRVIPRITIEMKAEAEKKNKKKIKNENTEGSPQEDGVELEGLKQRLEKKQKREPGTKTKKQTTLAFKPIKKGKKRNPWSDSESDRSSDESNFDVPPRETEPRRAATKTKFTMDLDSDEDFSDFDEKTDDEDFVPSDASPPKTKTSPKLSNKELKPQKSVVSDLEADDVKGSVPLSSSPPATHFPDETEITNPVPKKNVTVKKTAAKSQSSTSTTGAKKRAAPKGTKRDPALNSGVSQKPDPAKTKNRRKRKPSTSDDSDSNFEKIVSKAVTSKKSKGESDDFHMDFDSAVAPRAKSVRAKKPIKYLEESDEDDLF
Assay Endpoint: pIC50
Please report pIC50 as the negative decimal logarithm of the molar concentration, giving only the number.

pIC50 measured on CCCc1cc(=O)oc2c(C(=O)N3CCCc4ccccc43)c(OC)cc(OC)c12 = 5.55
